# target-or-test-system: HLA-B*58:01
# protocol: IEDB peptide-MHC binding, purified MHC/direct/fluorescence; filed as Kd, often an IC50 or EC50 that approximates it; bounds were set here for any values at or beyond the usual limits of such assays
# conditions-used: source organism: Escherichia coli O157:H7
pKd: −log10 of the molar value.
Below is a list of entries, each paired with its recorded pKd value.
measure: pKd

• VVPLYDTPL = ≤ 4.70
• YMWECPDFF = ≤ 5.30
• FIVEHINAM = ≤ 4.70
• VSRDFDDVY = ≤ 4.70

###

Below is a list of entries, each paired with its recorded Kd value.
# target-or-test-system: HLA-A*02:01
# protocol: IEDB peptide-MHC binding, purified MHC/competitive/fluorescence; filed as Kd, often an IC50 or EC50 that approximates it; bounds were set here for any values at or beyond the usual limits of such assays
# conditions-used: source organism: Variola virus
measure: Kd (nM)

• NLATSIYTI = 1.1
• QVKDEKLNL = 324
• QLVKGFERFQ = 634

###

# target-or-test-system: HLA-C*06:02
# protocol: IEDB peptide-MHC binding, purified MHC/direct/fluorescence; filed as Kd, often an IC50 or EC50 that approximates it; bounds were set here for any values at or beyond the usual limits of such assays
# conditions-used: source organism: Giardia lamblia ATCC 50803
measure: Kd

• YPFHIFYPV = ≥ 20 µM

###

# target-or-test-system: HLA-B*15:03
# protocol: IEDB peptide-MHC binding, purified MHC/competitive/radioactivity; filed as Kd, often an IC50 or EC50 that approximates it; bounds were set here for any values at or beyond the usual limits of such assays
# conditions-used: source organism: Vaccinia virus WR
Classification scheme (Kd): L (below 0.003 µM), M (0.003 µM to below 0.2 µM), H (0.2 µM or more)

• YAFSKYMSF = L
• RKVKSYNYM = L
• IVYSLVTTI = H
• AEMMAPSMF = M
• RKISSKNSM = L
• MLMFIFTGI = H
• FTQQALSSF = M
• VRKNFTSSF = M
• ISTYPGNTF = L
• RLHSNTILK = H
• IKVLVEHGF = H
• RAYMATTIL = M
• IQTMDGQEL = M
• SQIETGTPF = L

###

# target-or-test-system: HLA-B*58:01
# protocol: IEDB peptide-MHC binding, purified MHC/competitive/radioactivity; filed as Kd, often an IC50 or EC50 that approximates it; bounds were set here for any values at or beyond the usual limits of such assays
# conditions-used: source organism: Homo sapiens
pKd: −log10 of the molar value.
measure: pKd

- KMKEIAEAY: 5.69

###

# target-or-test-system: HLA-A*26:01
# protocol: IEDB peptide-MHC binding, purified MHC/direct/fluorescence; filed as Kd, often an IC50 or EC50 that approximates it; bounds were set here for any values at or beyond the usual limits of such assays
# conditions-used: source organism: Vibrio cholerae
measure: Kd

• IHYAGWVSL = ≥ 20 µM
• DTDISQLHH = ≥ 20 µM
• YFRNSGMTY = ≥ 20 µM

###

Below is a list of entries, each paired with its recorded pIC50 value.
# target-or-test-system: HLA-A*24:02
# protocol: IEDB peptide-MHC binding, purified MHC/competitive/fluorescence; bounds were set here for any values at or beyond the usual limits of such assays
# conditions-used: source organism: Sudan ebolavirus
pIC50: −log10 of the molar value.
measure: pIC50

- RPHTPQFLF: 5.99
- ILNRKAIDF: 5.48
- LYDRLASTV: 5.88

###

# target-or-test-system: HLA-A*26:01
# protocol: IEDB peptide-MHC binding, purified MHC/direct/fluorescence; filed as Kd, often an IC50 or EC50 that approximates it; bounds were set here for any values at or beyond the usual limits of such assays
# conditions-used: source organism: Pasteurella multocida
pKd: −log10 of the molar value.
measure: pKd

- LMAEDLANV: ≤ 4.70

###

# target-or-test-system: HLA-B*15:17
# protocol: IEDB peptide-MHC binding, purified MHC/competitive/fluorescence; filed as Kd, often an IC50 or EC50 that approximates it; bounds were set here for any values at or beyond the usual limits of such assays
# conditions-used: source organism: Reston ebolavirus
measure: Kd

• TTDDSTSYY = ≥ 20 µM

###

# target-or-test-system: HLA-B*40:01
# protocol: IEDB peptide-MHC binding, purified MHC/direct/fluorescence; filed as Kd, often an IC50 or EC50 that approximates it; bounds were set here for any values at or beyond the usual limits of such assays
# conditions-used: source organism: Influenza A virus
pKd: −log10 of the molar value.
measure: pKd

• DWSGYSGSF = ≤ 4.70

###

# target-or-test-system: HLA-B*39:01
# protocol: IEDB peptide-MHC binding, purified MHC/competitive/fluorescence; filed as Kd, often an IC50 or EC50 that approximates it; bounds were set here for any values at or beyond the usual limits of such assays
# conditions-used: source organism: Cryptosporidium parvum Iowa II
pKd: −log10 of the molar value.
measure: pKd

* RIYKRSLKL | ≤ 4.70
* RKWGLDFCY | ≤ 4.70

###

# target-or-test-system: HLA-B*58:01
# protocol: IEDB peptide-MHC binding, purified MHC/competitive/radioactivity; filed as Kd, often an IC50 or EC50 that approximates it; bounds were set here for any values at or beyond the usual limits of such assays
# conditions-used: source organism: Dengue virus 1 Singapore/S275/1990
measure: Kd (nM)

- MASSVLLWMA: 223

###

# target-or-test-system: HLA-B*39:01
# protocol: IEDB peptide-MHC binding, purified MHC/competitive/fluorescence; filed as Kd, often an IC50 or EC50 that approximates it; bounds were set here for any values at or beyond the usual limits of such assays
# conditions-used: source organism: Mycobacterium leprae
measure: Kd (nM)

* YPACEAIGL | 31

###

# target-or-test-system: HLA-A*02:03
# protocol: IEDB peptide-MHC binding, purified MHC/competitive/fluorescence; filed as Kd, often an IC50 or EC50 that approximates it; bounds were set here for any values at or beyond the usual limits of such assays
# conditions-used: source organism: human gammaherpesvirus 4
pKd: −log10 of the molar value.
measure: pKd

- SVRDRLARL: 7.91

###

Below is a list of entries, each paired with its recorded pKd value.
# target-or-test-system: HLA-A*69:01
# protocol: IEDB peptide-MHC binding, purified MHC/competitive/fluorescence; filed as Kd, often an IC50 or EC50 that approximates it; bounds were set here for any values at or beyond the usual limits of such assays
# conditions-used: source organism: Giardia lamblia ATCC 50803
pKd: −log10 of the molar value.
measure: pKd

- ISKANWMTY: ≤ 4.70
- IANTTDHFF: ≤ 4.70

###

Below is a list of entries, each paired with its recorded Kd value.
# target-or-test-system: HLA-A*02:02
# protocol: IEDB peptide-MHC binding, purified MHC/competitive/radioactivity; filed as Kd, often an IC50 or EC50 that approximates it; bounds were set here for any values at or beyond the usual limits of such assays
# conditions-used: source organism: Trypanosoma cruzi
measure: Kd (µM)

* LLGLWGFAAQ | 1.24
* SLSHDFTLV | 0.000305

###

# target-or-test-system: HLA-A*68:02
# protocol: IEDB peptide-MHC binding, purified MHC/competitive/fluorescence; filed as Kd, often an IC50 or EC50 that approximates it; bounds were set here for any values at or beyond the usual limits of such assays
# conditions-used: source organism: Yersinia pestis Nepal516
measure: Kd

* LELIGNAES | ≥ 20 µM

###

# target-or-test-system: HLA-A*29:02
# protocol: IEDB peptide-MHC binding, purified MHC/direct/fluorescence; filed as Kd, often an IC50 or EC50 that approximates it; bounds were set here for any values at or beyond the usual limits of such assays
# conditions-used: source organism: Burkholderia mallei ATCC 23344
measure: Kd

* MVFGRFSFA | 192 nM

###

# target-or-test-system: HLA-A*02:03
# protocol: IEDB peptide-MHC binding, purified MHC/competitive/radioactivity; filed as Kd, often an IC50 or EC50 that approximates it; bounds were set here for any values at or beyond the usual limits of such assays
# conditions-used: source organism: Dengue virus 2 Jamaica/1409/1983
pKd: −log10 of the molar value.
measure: pKd

- IMAVGMVSI: 8.08
- YQLAVTIMAI: 7.95
- LMAIDLGEL: 7.82

###

# target-or-test-system: HLA-A*26:01
# protocol: IEDB peptide-MHC binding, purified MHC/competitive/radioactivity; filed as Kd, often an IC50 or EC50 that approximates it; bounds were set here for any values at or beyond the usual limits of such assays
# conditions-used: source organism: Mammarenavirus juninense
measure: Kd

- LFQFFVFLV: ≥ 57.2 µM

Source of measurements: the Immune Epitope Database (IEDB)
